Assay: Drug concentration in cynomolgus monkey urine at 1.9 mg/kg, po after 12 hrs
Assay type: ADME, organism-based, Macaca fascicularis
Parameters: dose 1.9 mg/kg, route oral
Settings: read-out: Drug uptake
Quantity Kind: dose excreted at 12 h

COc1ccc(OC(=O)N(CC(=O)O)Cc2ccc(OCCc3nc(-c4ccccc4)oc3C)cc2)cc1 has a reported dose excreted at 12 h of 1.7%

###

Assay: Fecal excretion of compound in orally dosed human within 48 hrs
Assay type: ADME, organism-based
Details: faeces, po, read-out: Activity
Quantity Kind: dose excreted at 48 h (%)
Answer with a number only, understood to be in %.

Entry COc1ccc(OC(=O)N(CC(=O)O)Cc2ccc(OCCc3nc(-c4ccccc4)oc3C)cc2)cc1 — recorded dose excreted at 48 h = 25

###

Molecular target: Peroxisome proliferator-activated receptor alpha (Homo sapiens)
Sequence (Q07869 whole entry): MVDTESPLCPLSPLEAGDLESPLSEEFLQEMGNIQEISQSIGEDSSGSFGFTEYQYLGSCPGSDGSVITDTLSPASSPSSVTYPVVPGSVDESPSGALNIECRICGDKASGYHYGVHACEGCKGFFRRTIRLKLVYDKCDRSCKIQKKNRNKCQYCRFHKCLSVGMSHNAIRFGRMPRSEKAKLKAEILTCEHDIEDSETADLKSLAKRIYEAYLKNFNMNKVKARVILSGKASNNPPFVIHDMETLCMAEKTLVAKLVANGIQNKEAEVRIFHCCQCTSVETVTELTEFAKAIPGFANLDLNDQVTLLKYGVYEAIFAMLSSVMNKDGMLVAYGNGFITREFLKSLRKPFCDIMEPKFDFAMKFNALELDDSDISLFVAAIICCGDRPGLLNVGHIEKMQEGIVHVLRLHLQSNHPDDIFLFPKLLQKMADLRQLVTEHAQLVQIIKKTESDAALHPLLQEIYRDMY
Experiment: Binding affinity at PPAR alpha receptor
Quantity Kind: IC50

Sample answers from the record:
O=C(O)CN(Cc1ccc(OCCc2nc(-c3ccccc3)oc2CO)cc1)C(=O)Oc1ccc(O)cc1 = > 15 µM
COc1ccc(OC(=O)N(CC(=O)O)Cc2ccc(OCCc3nc(-c4ccc(O)cc4)oc3C)cc2)cc1 = 0.099 µM
COc1ccc(OC(=O)N(CC(=O)O)Cc2ccc(O)cc2)cc1 = > 15 µM

Now for a further compound.
Item COc1ccc(OC(=O)N(CC(=O)O)Cc2ccc(OCCC(=O)N(C(C)=O)C(=O)c3ccccc3)cc2)cc1 ; assay system Peroxisome proliferator-activated receptor alpha (Homo sapiens); IC50 reported as > 15 µM

###

Assay: Fecal excretion rate in orally dosed Beagle dog within 24 hrs
Assay type: ADME, organism-based, Canis lupus familiaris
Conditions: faeces, po, read-out: Activity
Quantity Kind: dose excreted at 24 h
Reply with the number and its unit after it.

Note to self: dose excreted at 24 h recorded for COc1ccc(OC(=O)N(CC(=O)O)Cc2ccc(OCCc3nc(-c4ccccc4)oc3C)cc2)cc1 [MURAGLITAZAR] was 85%

###

Test: Fecal excretion of compound in orally dosed cynomolgus monkey within 96 hrs
Assay type: ADME, organism-based, Macaca fascicularis
Conditions: faeces, po, read-out: Activity
Quantity Kind: dose excreted at 96 h (%)
Provide only the numeric value, understood in %.

Measured dose excreted at 96 h, COc1ccc(OC(=O)N(CC(=O)O)Cc2ccc(OCCc3nc(-c4ccccc4)oc3C)cc2)cc1 [MURAGLITAZAR] : 75

###

Assay: Cmax in Sprague-Dawley rat at 10 mg/kg, po after 96 hrs
Assay type: ADME, organism-based
Set-up: dose 10 mg/kg, route oral
Conditions: in vivo
Quantity Kind: Cmax
Respond with a number, then the unit of measure.

Cmax recorded for this compound, COc1ccc(OC(=O)N(CC(=O)O)Cc2ccc(OCCc3nc(-c4ccccc4)oc3C)cc2)cc1.Cl [MURAGLITAZAR CHLORIDE] , is 12800 ng/mL

###

Experiment: AUC (0 to T) in cynomolgus monkey at 1.9 mg/kg, po after 144 hrs
Assay type: ADME, organism-based, Macaca fascicularis
Design: time < 144 hr, dose 1.9 mg/kg, route oral
Conditions: plasma
Quantity Kind: AUC(0-t) at 144 h (ng·h/mL)
# output: bare number, implied unit ng·h/mL

Quick note, AUC(0-t) at 144 h for COc1ccc(OC(=O)N(CC(=O)O)Cc2ccc(OCCc3nc(-c4ccccc4)oc3C)cc2)cc1.Cl [MURAGLITAZAR CHLORIDE] landed at 41000
